experiment: E. coli acrAB mutant growth effects, primary screen, E. coli filamentation inducers, strain DRC39, OD650, 48 h (AID 1179);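 also: screen aims at cell division blockers that make cells filament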; details: E. coli DRC39 delta-acrAB growth, higher = more signal, called active from +8 up or from −8 down
Criterion: z-score meeting or surpassing 0.3. Met: condition met. Not met: condition not met.

>  <molecule>
COC(=O)c1c(CC[C@@H](CO)NC(=O)N2CCC[C@H]2Cn2cc(Cc3ccccc3)nn2)oc(C(C)=O)c1C(=O)OC

>  <answerLabel>
condition met

$$$$
>  <molecule>
C=CCOC(=O)[C@H]1[C@@H]2C(=O)O[C@@H](c3ccccc3)[C@@H](c3ccccc3)N2[C@@H](c2ccc(OCCOC(=O)[C@H]3C[C@H]4C(=O)N[C@@H](CCCCNC(C)=O)C(=O)N4[C@H]3c3ccc(O)cc3)cc2)[C@]12C(=O)Nc1ccccc12

>  <answerLabel>
condition met

$$$$
>  <molecule>
CN1C(=O)C2C=CC(C(O)C#Cc3ccccc3)N(Nc3ccccc3)C2C1=O (configuration not stated)

>  <answerLabel>
condition not met

$$$$
>  <molecule>
C[C@@H]1NC(=O)[C@@]23C(=O)N[C@@H](Cc4ccccc4)C2[C@H](C)[C@@]2(C)O[C@H]2C3/C=C/C/C=C\CNC(=O)[C@@H]2CCCN2C1=O (some centres not stated)

>  <answerLabel>
condition not met

$$$$
>  <molecule>
COC(=O)C(CC#Cc1ccc2c(c1)[C@]1(C(=O)N2)[C@H](C(=O)N2CCN(c3ncccn3)CC2)[C@H]2C(=O)O[C@H](c3ccccc3)[C@H](c3ccccc3)N2[C@@H]1c1ccc(OCCO)cc1)C(=O)OC

>  <answerLabel>
condition met

$$$$
>  <molecule>
COC(=O)[C@@]1(Cc2ccc(F)cc2)[C@H]2c3cc(C(=O)N(C)C)n(Cc4cc(F)cc5c4OCOC5)c3C[C@H]2CN1C(=O)c1ccccc1

>  <answerLabel>
condition not met

$$$$
>  <molecule>
COC(=O)C1=CC(CCCO)=CC(C2CC2)N(C)C=C1C(=O)OC (configuration not stated)

>  <answerLabel>
condition met

$$$$
